For each entry below, report its normalized growth value.
- measurement-protocol: chemical genetic growth profiling, strain panel (AID 1159580);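 note: tested at 20 µM; growth read once vehicle control cultures reached saturation at 30 °C; 1 = growth at the plate median or of vehicle wells; lower values mean less growth of the strain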
- setup-conditions: S. cerevisiae deletion strains, growth OD, locus YCR088W, strain abp1, active compounds read low
Hit rate of the full screen: of about 5,500 compounds, about 2,000 (36%) were called active. About 18% were inconclusive and are not listed. The list shows a part of the results.
Could you respond with only the numeric value?

Prompt: Form field: reported normalized growth of COc1ccc(C[C@H]2NC[C@H](O)[C@H]2OC(C)=O)cc1
Completion: 0.835

Prompt: Consider the compound COc1ccc([C@@H]2CC(=O)c3c(O)cc(O)cc3O2)cc1O and give its measured normalized growth.
Completion: 0.977

Prompt: Please give the measured normalized growth for this compound: NC(N)=NOCC[C@H](N)C(=O)O
Completion: 1.01

Prompt: Which normalized growth value belongs to COC(=O)[C@@H]1C(O)CC[C@H]2CN3CCc4c([nH]c5ccccc45)[C@@H]3C[C@@H]21 (some centres not stated) ?
Completion: 1.01

Prompt: Fill in the blank: the reported normalized growth of CN=C(NC#N)NCCSCc1nc(N=C(N)N)cs1 is ____.
Completion: 0.967

Prompt: Report normalized growth for CC(=O)OCC(CCn1cnc2cnc(N)nc21)COC(C)=O please.
Completion: 0.988

Prompt: Quick one: normalized growth of CC(=O)O[C@H]1C(=O)[C@@]2(C)C([C@H](OC(=O)c3ccccc3)[C@]3(O)C[C@H](O)C(C)=C1C3(C)C)[C@]1(OC(C)=O)CO[C@@H]1C[C@@H]2O (some centres not stated) ?
Completion: 0.986

Prompt: # normalized growth lookup, item COc1ccc2cc1Oc1ccc(cc1)C[C@H]1c3cc(c(OC)cc3CCN1C)Oc1c(OC)c(OC)cc3c1[C@H](C2)N(C)CC3
Completion: 1.01

Prompt: Find the recorded normalized growth belonging to COC(=O)COc1cc(Cl)c(Cl)cc1Cl and report it.
Completion: 0.985

Prompt: normalized growth for C1CCc2nnnn2CC1 ?
Completion: 1.02

Prompt: Look up normalized growth: COc1ccc2c(c1)OC[C@@H](Cc1ccc(OC)c(OC)c1)[C@@H]2O
Completion: 0.983

Prompt: Find the recorded normalized growth belonging to CCc1nc(N)nc(N)c1-c1ccc(Cl)cc1 and report it.
Completion: 0.977

Prompt: GET /values?readout=normalized growth&item= COc1cc(OC)c2c(c1)O[C@H](c1ccc(OC)c(OC)c1)[C@@H](O)C2
Completion: 0.984

Prompt: What normalized growth value was documented for this compound, COc1ccc(C2CC(=O)c3ccc(OC)cc3O2)cc1 (configuration not stated) ?
Completion: 0.957

Prompt: Look up normalized growth: O=C(O)c1cc(=O)c2ccc(Cl)cc2[nH]1
Completion: 1.01

Prompt: Consider the compound shown here: CC(=O)O[C@]1(C(C)=O)CCC2C3C=C(C)C4=CC(=O)CCC4(C)C3CCC21C (some centres not stated) What is its recorded normalized growth?
Completion: 0.958

Prompt: Can you share its normalized growth? I mean this compound: C[CH2][Hg][S]c1ccccc1C(=O)O
Completion: 0.0571

Prompt: Given the entry CC(C(=O)O)c1ccc2c(c1)[nH]c1ccc(Cl)cc12 (configuration not stated) , report its measured normalized growth.
Completion: 0.973

Prompt: Give the measured normalized growth of C=CC1=C(C(=O)O)N2C(=O)[C@@H](NC(=O)/C(=N/O)c3csc(N)n3)[C@H]2SC1 .
Completion: 1.02

Prompt: Please report the recorded normalized growth for O=C(O)c1ccccc1OP(=O)(O)O .
Completion: 1.01

Prompt: Entry under review: CC(=O)[C@H]1CCC2C3C[C@H](C)C4=CC(=O)CC[C@]4(C)C3[C@@H](O)C[C@@]21C (some centres not stated) . Reported normalized growth?
Completion: 0.98

Prompt: Dear colleague, I am looking for the recorded normalized growth of the following compound: CNc1ccccc1C(=O)N1CCc2c([nH]c3ccccc23)C1=O
Completion: 1

Sourced from PubChem BioAssay AID1159580
